# condition-summary: mouse, in vivo, sc, 50 mg/kg
e = 2'-O-(2-methoxyethyl) (MOE); d = 2'-deoxy (DNA)
The following substances are listed with their measured WBC values.
parameter: WBC

[
  {
    "substance": "ISIS 416853: MOE gapmer, nucleobases 1275 to 1318 of SEQ ID NO: 1 (Table 8) (antisense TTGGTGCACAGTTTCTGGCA; MOE gapmer, wing and gap sizes not given here)",
    "observed": "8 10^3/μL"
  },
  {
    "substance": "ISIS 416856: MOE gapmer, nucleobases 1275 to 1318 of SEQ ID NO: 1 (Table 8) (antisense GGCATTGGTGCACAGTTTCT; MOE gapmer, wing and gap sizes not given here)",
    "observed": "5 10^3/μL"
  },
  {
    "substance": "ISIS 416852: MOE gapmer, nucleobases 1275 to 1318 of SEQ ID NO: 1 (Table 8) (antisense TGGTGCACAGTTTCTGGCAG; MOE gapmer, wing and gap sizes not given here)",
    "observed": "5 10^3/μL"
  },
  {
    "substance": "ISIS 412224: 5-10-5 MOE gapmer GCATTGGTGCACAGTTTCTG (sugars from the 5' end e5 d10 e5, backbone and methylation of C not given here)",
    "observed": "9 10^3/μL"
  },
  {
    "substance": "ISIS 416854: MOE gapmer, nucleobases 1275 to 1318 of SEQ ID NO: 1 (Table 8) (antisense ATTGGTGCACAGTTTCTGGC; MOE gapmer, wing and gap sizes not given here)",
    "observed": "12 10^3/μL"
  },
  {
    "substance": "ISIS 416859: MOE gapmer, nucleobases 1275 to 1318 of SEQ ID NO: 1 (Table 8) (antisense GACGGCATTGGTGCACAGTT; MOE gapmer, wing and gap sizes not given here)",
    "observed": "6 10^3/μL"
  },
  {
    "substance": "ISIS 416849: MOE gapmer, nucleobases 1275 to 1318 of SEQ ID NO: 1 (Table 8) (antisense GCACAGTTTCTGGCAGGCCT; MOE gapmer, wing and gap sizes not given here)",
    "observed": "9 10^3/μL"
  }
]

----------
# Tested on: human Factor 11 mRNA
# experimental-protocol: Dose-dependent inhibition of human Factor 11 in HepG2 cells, lipofectin 9.375-75 nM (Example 4)
# Assay type: cell-based
# condition-summary: 37.5 nM, relative to untreated control cells
Strand notation (5' to 3'): a small letter for the sugar, then the base; units joined by * are phosphorothioate-linked, units joined directly phosphodiester-linked; [ ] holds rarer units or linkages, { } end groups; capitals alone tell only the bases. e = 2'-O-(2-methoxyethyl) (MOE); [5mC] = 5-methylcytosine; d = 2'-deoxy (DNA)
parameter: percent inhibition of Factor 11 at 37.5 nM (%)

[
  {
    "substance": "416984 (antisense e[5mC]*eA*dA*d[5mC]*d[5mC]*dG*dG*dG*dA*dT*dG*dA*dT*dG*dA*eG*eT*eG*e[5mC]*eA) [compound 416984]",
    "assay-target": "human Factor 11 mRNA",
    "observed": 62
  },
  {
    "substance": "416892 (antisense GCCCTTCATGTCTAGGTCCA; 3-14-3 chimeric gapmer, further chemistry not given here) [compound 416892]",
    "assay-target": "human Factor 11 mRNA",
    "observed": 70
  },
  {
    "substance": "416993 (antisense e[5mC]*eT*dT*dT*dG*dA*dG*dA*dT*dT*d[5mC]*dT*dT*dT*dG*eG*eG*e[5mC]*e[5mC]*eA) [compound 416993]",
    "assay-target": "human Factor 11 mRNA",
    "observed": 50
  }
]
